The reported numbers originate from ChEMBL document CHEMBL1201862.

EXPERIMENTAL_TARGET: UniProt:Q9UM73
Sequence (Q9UM73 whole entry): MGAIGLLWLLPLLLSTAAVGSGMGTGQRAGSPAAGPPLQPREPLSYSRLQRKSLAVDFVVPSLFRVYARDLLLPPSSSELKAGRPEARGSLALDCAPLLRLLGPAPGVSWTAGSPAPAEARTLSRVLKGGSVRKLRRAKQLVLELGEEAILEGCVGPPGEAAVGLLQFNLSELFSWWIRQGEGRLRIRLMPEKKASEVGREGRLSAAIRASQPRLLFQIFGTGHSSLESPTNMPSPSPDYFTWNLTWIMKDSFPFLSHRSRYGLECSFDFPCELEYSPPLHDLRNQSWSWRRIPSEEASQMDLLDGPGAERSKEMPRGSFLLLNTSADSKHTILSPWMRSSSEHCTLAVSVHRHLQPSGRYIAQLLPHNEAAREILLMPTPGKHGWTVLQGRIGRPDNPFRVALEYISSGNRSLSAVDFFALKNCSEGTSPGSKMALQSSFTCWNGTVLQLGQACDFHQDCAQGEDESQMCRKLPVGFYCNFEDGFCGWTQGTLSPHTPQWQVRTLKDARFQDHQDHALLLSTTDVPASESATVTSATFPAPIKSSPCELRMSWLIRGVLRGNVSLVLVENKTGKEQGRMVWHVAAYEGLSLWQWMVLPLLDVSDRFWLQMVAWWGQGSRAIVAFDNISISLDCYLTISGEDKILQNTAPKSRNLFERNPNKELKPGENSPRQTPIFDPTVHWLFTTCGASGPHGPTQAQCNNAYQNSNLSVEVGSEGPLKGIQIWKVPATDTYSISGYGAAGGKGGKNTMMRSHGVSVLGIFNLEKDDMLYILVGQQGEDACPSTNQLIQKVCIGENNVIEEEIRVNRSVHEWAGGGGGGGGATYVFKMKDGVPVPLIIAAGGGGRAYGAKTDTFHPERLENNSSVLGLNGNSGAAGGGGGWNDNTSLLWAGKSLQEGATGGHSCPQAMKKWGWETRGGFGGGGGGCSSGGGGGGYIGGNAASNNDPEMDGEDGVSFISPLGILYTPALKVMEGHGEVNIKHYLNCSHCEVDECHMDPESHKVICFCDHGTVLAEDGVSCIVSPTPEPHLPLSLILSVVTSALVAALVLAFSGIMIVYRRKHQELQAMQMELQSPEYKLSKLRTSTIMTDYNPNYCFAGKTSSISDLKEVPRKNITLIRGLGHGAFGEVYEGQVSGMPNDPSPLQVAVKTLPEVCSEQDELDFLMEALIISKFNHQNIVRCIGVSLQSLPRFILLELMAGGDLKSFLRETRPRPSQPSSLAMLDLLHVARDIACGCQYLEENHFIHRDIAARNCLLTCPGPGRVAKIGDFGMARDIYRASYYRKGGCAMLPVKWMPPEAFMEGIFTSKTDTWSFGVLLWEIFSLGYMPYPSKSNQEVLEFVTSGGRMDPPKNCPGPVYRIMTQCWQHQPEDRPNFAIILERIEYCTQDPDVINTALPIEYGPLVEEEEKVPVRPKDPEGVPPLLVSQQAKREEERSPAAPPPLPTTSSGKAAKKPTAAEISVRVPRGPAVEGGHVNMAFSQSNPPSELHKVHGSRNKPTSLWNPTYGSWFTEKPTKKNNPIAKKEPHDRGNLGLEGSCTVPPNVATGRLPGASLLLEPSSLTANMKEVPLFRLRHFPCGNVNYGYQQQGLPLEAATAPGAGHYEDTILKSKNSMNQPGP
Type: functional
Activity calls are given as the source filed them.
Choose the fitting class; nothing outside true (1) for active, false (0) for inactive is accepted.

Which result was noted for this compound in the test: CCC1CC(NS(=O)(=O)C2CC2)CC1c1ncc2cnc3[nH]ccc3n12 (centres undefined) true (1)

Moving on to the next compound: `O=C(Nc1cccc(C(F)(F)F)n1)Nc1ccnc2cc(OC(F)F)ccc12` false (0)

Moving on to the next compound: `O=C(Nc1cccc(C(F)(F)F)n1)Nc1ccnc2cc(Cl)ccc12` false (0)

Moving on to the next compound: `O=c1[nH]c2cc(Br)cnc2[nH]1` true (1)

* * *

EXPERIMENTAL_TARGET: Dual specificity mitogen-activated protein kinase kinase 2 (Homo sapiens)
Sequence (P36507 whole entry): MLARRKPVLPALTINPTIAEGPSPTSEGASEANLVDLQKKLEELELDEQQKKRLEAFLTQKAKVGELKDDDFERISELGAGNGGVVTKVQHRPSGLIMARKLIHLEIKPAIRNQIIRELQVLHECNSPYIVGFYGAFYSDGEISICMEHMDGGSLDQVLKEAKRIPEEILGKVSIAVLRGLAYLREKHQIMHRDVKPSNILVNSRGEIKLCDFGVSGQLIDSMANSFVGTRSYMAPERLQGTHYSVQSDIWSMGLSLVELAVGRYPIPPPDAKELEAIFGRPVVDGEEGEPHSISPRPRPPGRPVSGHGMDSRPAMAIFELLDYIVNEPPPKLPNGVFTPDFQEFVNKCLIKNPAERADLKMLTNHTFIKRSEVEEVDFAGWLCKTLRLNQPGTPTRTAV
ASSAY_TEXT: Navigating the Kinome. Panel member name: MAP2K2
Type: functional
Activity calls are given as the source filed them.
Choose the fitting class; nothing outside TRUE (active), FALSE (inactive) is accepted.

Which result was noted for this compound in the test: `O=c1[nH]c2cc(Br)cnc2[nH]1` TRUE

Moving on to the next compound: `O=C(Nc1cccc(C(F)(F)F)n1)Nc1ccnc2cc(OC(F)F)ccc12` FALSE

Moving on to the next compound: `O=C(Nc1cccc(C(F)(F)F)n1)Nc1ccnc2cc(Cl)ccc12` FALSE

Moving on to the next compound: CCC1CC(NS(=O)(=O)C2CC2)CC1c1ncc2cnc3[nH]ccc3n12 (centres undefined) FALSE

* * *

System: Streptococcus sp. 'group A'
ASSAY_TEXT: growth inhibition of control SK(-) GAS strain, dose response, counter-screen for streptokinase expression inhibitor project, luminescence, kanamycin, BacTiterGlo, confirmation (AID 1900)
Format: functional, organism-based
Active and inactive are the calls of the source.
QUANTITY_KIND: EC50

Param item = `O=C(Nc1nnc(-c2ccccc2Cl)o1)c1ccc(S(=O)(=O)N2CCCCCC2)cc1` ; retrieve measured EC50. 0.266 µM (active)

Moving on to the next compound: CC1CCc2c(sc3nc(C4CC4)nc(N4CCN(C(=O)c5ccco5)CC4)c23)C1 (stereo not given) 3.48 µM (active)

Moving on to the next compound: `CCOC(=O)c1cnc(-n2nc(C)cc2C)nc1NCc1ccccc1` 8.49 µM (active)

Moving on to the next compound: `Cc1cc(C)c(S(=O)(=O)/N=C2\C=C(Nc3ccc(C(=O)O)cc3)C(=O)c3ccccc32)c(C)c1` 0.561 µM (active)

Moving on to the next compound: `O=C(CNC(=O)c1ccc(F)cc1)N/N=C/c1cc(Br)ccc1OCc1ccccc1` 10.3 µM (active)

Moving on to the next compound: `C/C(=N\NC(=S)NCCc1ccccc1)c1ccc(Cl)cc1Cl` 4.66 µM (active)

Moving on to the next compound: CC(C)=CCc1c(O)cc2c(c1O)C(=O)CC(c1ccc(O)cc1)O2 (stereo not given) 3.55 µM (active)

Moving on to the next compound: `Cc1ccc(Cl)cc1N1CCN(C(=O)c2cccc3c(=O)c(C)c(-c4ccccc4)oc23)CC1` 5.59 µM (active)

Moving on to the next compound: `O=C(CSc1nnc(CNC(=O)c2c(F)cccc2F)o1)NCc1ccccc1` > 150 µM (not active)

Moving on to the next compound: `COc1ccc(-c2oc3cccnc3c2C#CC2(O)CCCCC2)cc1` 7.18 µM (active)
